Every entry's value here was drawn from the supplement of paper PMC10515830.

tested on: Danio rerio larvae (5 dpf); assay: difference in activity during first hour vs DMSO (percentage points); higher = more activity than DMSO; conditions: 10 µM; exposure time 6 h
Overview of recorded difference in activity during first hour for various compounds
Response field accepts a number only; no unit should be typed.

Check out these entries, answers already filled in.
{"Compound": "COc1ccc2c3c1O[C@H]1C[C@@H](O)C=C[C@@]31CCN(C)C2", "Measurement Kind": "difference in activity during first hour", "Test Result": 15.8}
{"Compound": "Cc1ccc(-c2cc(C(F)(F)F)nn2-c2ccc(S(N)(=O)=O)cc2)cc1", "Measurement Kind": "difference in activity during first hour", "Test Result": 2.67}
{"Compound": "OCCN1C[C@H](O)[C@@H](O)[C@H](O)[C@H]1CO", "Measurement Kind": "difference in activity during first hour", "Test Result": -0.913}

Let's switch to this compound now.
Could you share what difference in activity during first hour was measured for C#CCC(Cc1cnc2nc(N)nc(N)c2n1)c1ccc(C(=O)N[C@@H](CCC(=O)O)C(=O)O)cc1 (some centres undefined) [Pralatrexate] , tested on Danio rerio larvae (5 dpf)?
0.4
